Catalogue of sequences with associated thermal stability score
tested on: HeLa Kyoto; test: thermal stability score vs G1/S (z-score of summed log2 fold changes over temperatures); higher = more thermally stable than in G1/S; details: cell cycle stage: mitosis
Lab note: jot the number down without any unit.

MAAASGSVLQRCIVSPAGRHSASLIFLHGSGDSGQGLRMWIKQVLNQDLTFQHIKIIYPTAPPRSYTPMKGGISNVWFDRFKITNDCPEHLESIDVMCQVLTDLIDEEVKSGIKKNRILIGGFSMGGCMAIHLAYRNHQDVAGVFALSSFLNKASAVYQALQKSNGVLPELFQCHGTADELVLHSWAEETNSMLKSLGVTTKFHSFPNVYHELSKTELDILKLWILTKLPGEMEKQK [LYPLAL1] | 0.974
MGDKIWLPFPVLLLAALPPVLLPGAAGFTPSLDSDFTFTLPAGQKECFYQPMPLKASLEIEYQVLDGAGLDIDFHLASPEGKTLVFEQRKSDGVHTVETEVGDYMFCFDNTFSTISEKVIFFELILDNMGEQAQEQEDWKKYITGTDILDMKLEDILESINSIKSRLSKSGHIQTLLRAFEARDRNIQESNFDRVNFWSMVNLVVMVVVSAIQVYMLKSLFEDKRKSRT [TMED5] | 1.93

Proceeding to the next sequence to report its thermal stability score.
Value (thermal stability score, HeLa Kyoto) for record MPKRKVTFQGVGDEEDEDEIIVPKKKLVDPVAGSGGPGSRFKGKHSLDSDEEEDDDDGGSSKYDILASEDVEGQEAATLPSEGGVRITPFNLQEEMEEGHFDADGNYFLNRDAQIRDSWLDNIDWVKIRERPPGQRQASDSEEEDSLGQTSMSAQALLEGLLELLLPRETVAGALRRLGARGGGKGRKGPGQPSSPQRLDRLSGLADQMVARGNLGVYQETRERLAMRLKGLGCQTLGPHNPTPPPSLDMFAEELAEEELETPTPTQRGEAESRGDGLVDVMWEYKWENTGDAELYGPFTSAQMQTWVSEGYFPDGVYCRKLDPPGGQFYNSKRIDFDLYT [CD2BP2] = 0.833

###

Catalogue of sequences with associated melting temperature
tested on: HeLa Kyoto; assay: melting temperature (median over replicates), in situ; higher = more thermally stable; settings: cell cycle stage: mitosis
Use °C as the unit, but write only the number.

response.value for MAGKAHRLSAEERDQLLPNLRAVGWNELEGRDAIFKQFHFKDFNRAFGFMTRVALQAEKLDHHPEWFNVYNKVHITLSTHECAGLSERDINLASFIEQVAVSMT [PCBD1] (field: melting temperature) = 55.6

response.value for MFGPAKGRHFGVHPAPGFPGGVSQQAAGTKAGPAGAWPVGSRTDTMWRLRCKAKDGTHVLQGLSSRTRVRELQGQIAAITGIAPGGQRILVGYPPECLDLSNGDTILEDLPIQSGDMLIIEEDQTRPRSSPAFTKRGASSYVRETLPVLTRTVVPADNSCLFTSVYYVVEGGVLNPACAPEMRRLIAQIVASDPDFYSEAILGKTNQEYCDWIKRDDTWGGAIEISILSKFYQCEICVVDTQTVRIDRFGEDAGYTKRVLLIYDGIHYDPLQRNFPDPDTPPLTIFSSNDDIVLVQALELADEARRRRQFTDVNRFTLRCMVCQKGLTGQAEAREHAKETGHTNFGEV [YOD1] (field: melting temperature) = 50.2

response.value for MLPAALLRRPGLGRLVRHARAYAEAAAAPAAASGPNQMSFTFASPTQVFFNGANVRQVDVPTLTGAFGILAAHVPTLQVLRPGLVVVHAEDGTTSKYFVSSGSIAVNADSSVQLLAEEAVTLDMLDLGAAKANLEKAQAELVGTADEATRAEIQIRIEANEALVKALE [ATP5D] (field: melting temperature) = 54.5

###

tested on: HeLa Kyoto; experiment: thermal stability score vs G1/S (z-score of summed log2 fold changes over temperatures); higher = more thermally stable than in G1/S; settings: cell cycle stage: early G1 (4.5 h after nocodazole release)
observation_type: thermal stability score
Lab note: jot the number down without any unit.

These solved cases illustrate the format of a correct answer.
MTCWLRGVTATFGRPAEWPGYLSHLCGRSAAMDLGPMRKSYRGDREAFEETHLTSLDPVKQFAAWFEEAVQCPDIGEANAMCLATCTRDGKPSARMLLLKGFGKDGFRFFTNFESRKGKELDSNPFASLVFYWEPLNRQVRVEGPVKKLPEEEAECYFHSRPKSSQIGAVVSHQSSVIPDREYLRKKNEELEQLYQDQEVPKPKSWGGYVLYPQVMEFWQGQTNRLHDRIVFRRGLPTGDSPLGPMTHRGEEDWLYERLAP [PNPO] | -1.68
MAMLRVQPEAQAKVDVFREDLCTKTENLLGSYFPKKISELDAFLKEPALNEANLSNLKAPLDIPVPDPVKEKEKEERKKQQEKEDKDEKKKGEDEDKGPPCGPVNCNEKIVVLLQRLKPEIKDVIEQLNLVTTWLQLQIPRIEDGNNFGVAVQEKVFELMTSLHTKLEGFHTQISKYFSERGDAVTKAAKQPHVGDYRQLVHELDEAEYRDIRLMVMEIRNAYAVLYDIILKNFEKLKKPRGETKGMIY [PSME1] | -2.91
MLFYSFFKSLVGKDVVVELKNDLSICGTLHSVDQYLNIKLTDISVTDPEKYPHMLSVKNCFIRGSVVRYVQLPADEVDTQLLQDAARKEALQQKQ [LSM2] | -1.17

response.value for MSAFSEAALEKKLSELSNSQQSVQTLSLWLIHHRKHSRPIVTVWERELRKAKPNRKLTFLYLANDVIQNSKRKGPEFTKDFAPVIVEAFKHVSSETDESCKKHLGRVLSIWEERSVYENDVLEQLKQALYGDKKPRKRTYEQIKVDENENCSSLGSPSEPPQTLDLVRALQDLENAASGDAAVHQRIASLPVEVQEVSLLDKITDKESGERLSKMVEDACMLLADYNGRLAAEIDDRKQLTRMLADFLRCQKEALAEKEHKLEEYKRKLARVSLVRKELRSRIQSLPDLSRLPNVTGSHMHLPFAGDIYSED [RPRD1A] (field: thermal stability score) = 1.27

response.value for MSGGKYVDSEGHLYTVPIREQGNIYKPNNKAMADELSEKQVYDAHTKEIDLVNRDPKHLNDDVVKIDFEDVIAEPEGTHSFDGIWKASFTTFTVTKYWFYRLLSALFGIPMALIWGIYFAILSFLHIWAVVPCIKSFLIEIQCISRVYSIYVHTVCDPLFEAVGKIFSNVRINLQKEI [CAV1] (field: thermal stability score) = -2.45

response.value for MAAVVALSLRRRLPATTLGGACLQASRGAQTAAATAPRIKKFAIYRWDPDKAGDKPHMQTYEVDLNKCGPMVLDALIKIKNEVDSTLTFRRSCREGICGSCAMNINGGNTLACTRRIDTNLNKVSKIYPLPHMYVIKDLVPDLSNFYAQYKSIEPYLKKKDESQEGKQQYLQSIEEREKLDGLYECILCACCSTSCPSYWWNGDKYLGPAVLMQAYRWMIDSRDDFTEERLAKLQDPFSLYRCHTIMNCTRTCPKGLNPGKAIAEIKKMMATYKEKKASV [SDHB] (field: thermal stability score) = -1.86

response.value for MEAQAQGLLETEPLQGTDEDAVASADFSSMLSEEEKEELKAELVQLEDEITTLRQVLSAKERHLVEIKQKLGMNLMNELKQNFSKSWHDMQTTTAYKKTHETLSHAGQKATAAFSNVGTAISKKFGDMSYSIRHSISMPAMRNSPTFKSFEERVETTVTSLKTKVGGTNPNGGSFEEVLSSTAHASAQSLAGGSRRTKEEELQC [TPD52L1] (field: thermal stability score) = -3.64

response.value for MRRMWATQGLAVALALSVLPGSRALRPGDCEVCISYLGRFYQDLKDRDVTFSPATIENELIKFCREARGKENRLCYYIGATDDAATKIINEVSKPLAHHIPVEKICEKLKKKDSQICELKYDKQIDLSTVDLKKLRVKELKKILDDWGETCKGCAEKSDYIRKINELMPKYAPKAASARTDL [MANF] (field: thermal stability score) = -0.366

response.value for MAPHDPGSLTTLVPWAAALLLALGVERALALPEICTQCPGSVQNLSKVAFYCKTTRELMLHARCCLNQKGTILGLDLQNCSLEDPGPNFHQAHTTVIIDLQANPLKGDLANTFRGFTQLQTLILPQHVNCPGGINAWNTITSYIDNQICQGQKNLCNNTGDPEMCPENGSCVPDGPGLLQCVCADGFHGYKCMRQGSFSLLMFFGILGATTLSVSILLWATQRRKAKTS [ATRAID] (field: thermal stability score) = 0.782

response.value for MWSGRKLGSSGGWFLRVLGPGGCNTKAARPLISSAVYVKNQLSGTLQIKPGVFNEYRTIWFKSYRTIFSCLNRIKSFRYPWARLYSTSQTTVDSGEVKTFLALAHKWWDEQGVYAPLHSMNDLRVPFIRDNLLKTIPNHQPGKPLLGMKILDVGCGGGLLTEPLGRLGASVIGIDPVDENIKTAQCHKSFDPVLDKRIEYRVCSLEEIVEETAETFDAVVASEVVEHVIDLETFLQCCCQVLKPGGSLFITTINKTQLSYALGIVFSEQIASIVPKGTHTWEKFVSPETLESILESNGLSVQTVVGMLYNPFSGYWHWSENTSLNYAAYAVKSRVQEHPASAEFVLKGETEELQANACTNPAVHEKLKK [COQ3] (field: thermal stability score) = -0.812

response.value for MSGESARSLGKGSAPPGPVPEGSIRIYSMRFCPFAERTRLVLKAKGIRHEVININLKNKPEWFFKKNPFGLVPVLENSQGQLIYESAITCEYLDEAYPGKKLLPDDPYEKACQKMILELFSKVPSLVGSFIRSQNKEDYAGLKEEFRKEFTKLEEVLTNKKTTFFGGNSISMIDYLIWPWFERLEAMKLNECVDHTPKLKLWMAAMKEDPTVSALLTSEKDWQGFLELYLQNSPEACDYGL [GSTO1] (field: thermal stability score) = 1.3

response.value for MQDPNADTEWNDILRKKGILPPKESLKELEEEAEEEQRILQQSVVKTYEDMTLEELEDHEDEFNEEDERAIEMYRRRRLAEWKATKLKNKFGEVLEISGKDYVQEVTKAGEGLWVILHLYKQGIPLCALINQHLSGLARKFPDVKFIKAISTTCIPNYPDRNLPTIFVYLEGDIKAQFIGPLVFGGMNLTRDELEWKLSESGAIMTDLEENPKKPIEDVLLSSVRRSVLMKRDSDSEGD [PDCL3] (field: thermal stability score) = -0.23
